- target or test system: Thyrotropin-releasing hormone receptor (Homo sapiens)
- experiment summary: qHTS for Small Molecule Agonists and Allosteric Enhancers of Human TRH Receptor: Validation Screen for Agonists (AID 493127);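 further: intracellular calcium rise by fluo-8 fluorescence before TRH EC20 addition; 0% is about no effect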
- settings: TRH receptor agonist cell assay; at 2 µM; hits give high values
- Protocol: NIH Chemical Genomics Center [NCGC] NIH Molecular Libraries Probe Centers Network [MLPCN] Assay Submitter (PI): Marvin Gershengorn […] For the HTS assay freshly prepared cells are plated at a density of 2000/well in 3 ul of complete DMEM medium containing 10% serum in 1536-well plates and cultured over night at 37 C in a humidified incubator with 5% CO2. […] For the assay, assay plates were loaded into the FDSS kinetic plate reader. […]
value kind: activation (%)
Respond with the bare value in %.

Consider the worked cases shown below.
{"compound": "NCCC1CCCC(CCN)N1 (stereo not drawn)", "value kind": "activation", "uom": "%", "recorded number": 1.19}
{"compound": "NC(=O)CNCCC(c1ccccc1)c1ccccc1", "value kind": "activation", "uom": "%", "recorded number": 1.81}
{"compound": "O=C1C2C=CC=CC2=NC(=S)N1CCN1CCC(=C(c2ccc(F)cc2)c2ccc(F)cc2)CC1 (stereo not drawn)", "value kind": "activation", "uom": "%", "recorded number": -4.38}
{"compound": "O=C(O)/C=C/c1ccc(O)c(O)c1", "value kind": "activation", "uom": "%", "recorded number": 0.25}
{"compound": "CC(C)(C)NCC(O)COc1cccc2[nH]c(=O)[nH]c12 (stereo not drawn)", "value kind": "activation", "uom": "%", "recorded number": 1.12}
{"compound": "O=C(O)c1cc(=O)cc(C(=O)O)[nH]1", "value kind": "activation", "uom": "%", "recorded number": 0.75}

QUERY: Tell me measured activation for S=C(S)N1CCCC1 please.
RESULT: -0.188

QUERY: Tell me measured activation for NC1C=CC=C(C(=O)O)C1 (stereo not drawn) please.
RESULT: -0.125

QUERY: Tell me measured activation for CSC(N)=NCCC[C@H](N)C(=O)O please.
RESULT: 0.75

QUERY: Tell me measured activation for C[C@H](O)C(=O)C1=Nc2c(nc(N)[nH]c2=O)NC1 please.
RESULT: 1.06
